- Tested on: alcohol dehydrogenase from R. erythropolis
- procedure details: Preparative reduction of keto-compounds with ADH and formate dehydrogenase regeneration, chiral GC
- Type: biochemical, Rhodococcus erythropolis
- test settings: enzymatic reduction, chiral GC
measured metric: ee [%] of the product

- compound: "CCOC(=O)C(=O)CC [Ethyl 2-oxobutyrate, ethyl 2-oxobutyrate]"
  test result: ">99%"
- compound: "CC(=O)c1ccccc1"
  test result: ">99%"
- compound: "CCCCCC(C)=O"
  test result: ">99%"
- compound: "CCCCC(C)=O"
  test result: ">99%"

Pending compound:
Prompt line: Supply recorded ee [%] of the product for `CC(=O)c1ccc(Cl)cc1` here.
Response line: >99%
